Catalogue of relative growth recovery readings, one per entry.
# System: HEK293FT dCK*-IKZF1
# protocol: relative growth recovery (pomalidomide 10 uM = 100%, DMSO = 0%); higher = more growth rescue (IKZF1 fusion degradation)
# condition info: compound concentration: 5 uM; AraC concentration: 0.3 uM; overnight pretreatment + 4 days AraC
Structures can show the parent of a compound that is named as a salt.

{"compound": "COc1ccc(CCCOC(Cn2ccnc2)c2ccc(OC)cc2)cc1 (stereo not drawn)", "relative growth recovery, %": -9.78}
{"compound": "CO[C@H]1/C=C/O[C@@]2(C)Oc3c(C)c(O)c4c(O)c(c(/C=N/N5CCN(C)CC5)c(O)c4c3C2=O)NC(=O)/C(C)=C\\C=C\\[C@H](C)[C@H](O)[C@@H](C)[C@@H](O)[C@@H](C)[C@H](OC(C)=O)[C@@H]1C", "relative growth recovery, %": -2.5}
{"compound": "C[C@H]1O[C@@H](n2cc(F)c(=O)[nH]c2=O)[C@H](O)[C@@H]1O", "relative growth recovery, %": 0.84}
{"compound": "COc1cc(CN(CCN)C(=O)c2cccs2)ccc1OCc1ccccc1", "relative growth recovery, %": 0.355}
{"compound": "CC[C@@]1(O)C(=O)OCc2c1cc1n(c2=O)Cc2cc3cc(O)ccc3nc2-1 [10-Hydroxycamptothecin]", "relative growth recovery, %": -13.2}
{"compound": "CN(C)C(=O)C(CCN1CCC(O)(c2ccc(Cl)cc2)CC1)(c1ccccc1)c1ccccc1", "relative growth recovery, %": -0.755}
{"compound": "CCn1c(=O)[nH]c2cc(Cl)c(Cl)cc21", "relative growth recovery, %": -1.89}
{"compound": "CN1CCC(=C2c3ccccc3Sc3ccccc32)CC1", "relative growth recovery, %": -1.33}
{"compound": "CNC[C@H](O)c1ccc(O)c(O)c1 [Epinephrine (L-(-)-Epinephrine-(+)-Bitartrate)]", "relative growth recovery, %": -3.19}
{"compound": "O=C(/C=C/c1ccc(O)c(O)c1)c1ccc(O)cc1O [Butein]", "relative growth recovery, %": -8.42}
{"compound": "CN1CCCC1CCOC(C)(c1ccccc1)c1ccc(Cl)cc1 (stereo not drawn) [Clemastine fumarate]", "relative growth recovery, %": 5.08}
{"compound": "COc1ccc2nc3cc(Cl)ccc3c(Nc3cc(CN4CCCC4)c(O)c(CN4CCCC4)c3)c2n1", "relative growth recovery, %": -10.1}
{"compound": "Cc1ccc(/C=C2\\CNC/C(=C\\c3ccc(C)cc3)C2=O)cc1", "relative growth recovery, %": -12.6}
{"compound": "NCCNc1ccc(NCCN)c2c1C(=O)c1ccncc1C2=O.O=C(O)/C=C\\C(=O)O.O=C(O)/C=C\\C(=O)O [Pixantrone (dimaleate)]", "relative growth recovery, %": -1.7}
{"compound": "CCN(CC)CCCC(C)Nc1ccnc2cc(Cl)ccc12 (stereo not drawn) [Chloroquine Diphosphate]", "relative growth recovery, %": 0.365}
{"compound": "CC(C)c1ccc(-c2cc(=O)c3ccccc3o2)cc1", "relative growth recovery, %": 0.225}
{"compound": "NC(=O)NC(=O)Cc1ccccc1", "relative growth recovery, %": -2.01}
{"compound": "COC(=O)Nc1ccc(-c2nc(N3CCOCC3)c3cnn(C4CCN(C(=O)OC)CC4)c3n2)cc1", "relative growth recovery, %": -2.33}
